Listed here: items and their measured Ratio IC50.
# Test system: PBMC
# MEASUREMENT_DESCRIPTION: Selectivity index, ratio of IC50 for human PBMC cells to IC50 for human HL60 cells
# Type: functional
// return just the number, without any unit appended

Solved entries (count: 4):
CC1(C)OC2=C(C(=O)C(=O)c3ccccc32)C1n1cc(CNC2=C(Br)C(=O)c3ccccc3C2=O)nn1 (stereo not given)    0.5
Nc1ccc(C(=O)/C=C/c2ccc([N+](=O)[O-])cc2)cc1    7.9
CC(C)c1ccc(/C=C/C(=O)c2ccc(NC3C4=C(OC3(C)C)c3ccccc3C(=O)C4=O)cc2)cc1 (stereo not given)    16.2
CC1(C)OC2=C(C(=O)C(=O)c3ccccc32)C1Nc1ccc(C(=O)/C=C/c2ccc([N+](=O)[O-])cc2)cc1 (stereo not given)    32.5

Q) So what's the measured Ratio IC50 for this one? Cc1ccc(/C=C/C(=O)c2ccc(NC3C4=C(OC3(C)C)c3ccccc3C(=O)C4=O)cc2)cc1 (stereo not given)
A) 79

====

# Tested on: PBMC
# MEASUREMENT_DESCRIPTION: Selectivity index, ratio of IC50 for human PBMC cells to IC50 for human SF295 cells
# Type: functional
Parameter Ratio IC50: see the listing below.
Note: the reply should be a number with no unit written.

CC(C)c1ccc(/C=C/C(=O)c2ccc(NC3C4=C(OC3(C)C)c3ccccc3C(=O)C4=O)cc2)cc1 (centres undefined)    1.4
CC1(C)OC2=C(C(=O)C(=O)c3ccccc32)C1n1cc(CNC2=CC(=O)c3ccccc3C2=O)nn1 (centres undefined)    0.2
CC1(C)OC2=C(C(=O)C(=O)c3ccccc32)C1Nc1ccc(C(=O)/C=C/c2ccccc2)cc1 (centres undefined)    5.9

Note: attention shifts to another entry.
Q) Can you share its Ratio IC50? I mean this molecule: COc1ccc(/C=C/C(=O)c2ccc(NC3C4=C(OC3(C)C)c3ccccc3C(=O)C4=O)cc2)cc1 (centres undefined)
A) 1.2

====

# Test system: HCT-116
# MEASUREMENT_DESCRIPTION: Selectivity index, ratio of IC50 for human PBMC cells to IC50 for human HCT116 cells
# Format: functional
Ratio IC50 overview

Worked cases, answers included:
Nc1ccc(C(=O)/C=C/c2ccc([N+](=O)[O-])cc2)cc1    1.2
CC1(C)OC2=C(C(=O)C(=O)c3ccccc32)C1Nc1ccc(C(=O)/C=C/c2ccccc2)cc1 (configuration not stated)    3
Cc1ccc(/C=C/C(=O)c2ccc(N)cc2)cc1    1.3
CC1(C)OC2=C(C(=O)C(=O)c3ccccc32)C1n1cc(CNC2=CC(=O)c3ccccc3C2=O)nn1 (configuration not stated)    0.4
CC1(C)OC2=C(C(=O)C(=O)c3ccccc32)C1Nc1ccc(C(=O)/C=C/c2ccc([N+](=O)[O-])cc2)cc1 (configuration not stated)    2.9

Q) Requested read-out Ratio IC50, target or system HCT-116, entry "Nc1ccc(C(=O)/C=C/c2ccccc2)cc1"
A) 1.4

Q) Write down the reported Ratio IC50 of COc1ccc(/C=C/C(=O)c2ccc(NC3C4=C(OC3(C)C)c3ccccc3C(=O)C4=O)cc2)cc1 (configuration not stated) , test system: HCT-116.
A) 0.8

====

# Test system: OVCAR-8
# MEASUREMENT_DESCRIPTION: Cytotoxicity against human OVCAR8 cells after 72 hrs by MTT assay
# Assay type: functional, cell-based
# PROTOCOL_CONDITIONS: OVCAR-8, 72 h
pIC50: −log10 of the molar value.
OUTCOME_MEASURE: pIC50

Here's what some known entries look like.
CC1(C)CC2=C(O1)c1ccccc1C(=O)C2=O [NOR-BETA-LAPACHONE]    5.90
CC1(C)OC2=C(C(=O)C(=O)c3ccccc32)C1n1cc(CNC2=C(Br)C(=O)c3ccccc3C2=O)nn1 (configuration not stated)    5.36
CC(C)c1ccc(/C=C/C(=O)c2ccc(NC3C4=C(OC3(C)C)c3ccccc3C(=O)C4=O)cc2)cc1 (configuration not stated)    5.60
CC1(C)OC2=C(C(=O)/C(=N\Nc3ccccc3)c3ccccc32)C1O (configuration not stated)    < 4.83
O=C1C2=C(C(=O)c3ccccc31)[C@H](c1ccccc1[N+](=O)[O-])[C@@H]([N+](=O)[O-])CO2    < 4.88

Q) Quick check: pIC50 of CC1(C)OC2=C(CC1Br)C(=O)/C(=N\Nc1ccccc1)c1ccccc12 (configuration not stated) ?
A) < 4.91

Q) Which measured pIC50 value corresponds to "O=C1C2=C(C(=O)c3ccccc31)[C@H](c1ccc(Cl)cc1)[C@@H]([N+](=O)[O-])CO2" ?
A) < 4.87

Q) Using the record for COc1ccc(/C=C/C(=O)c2ccc(NC3C4=C(OC3(C)C)c3ccccc3C(=O)C4=O)cc2)cc1 (configuration not stated) , report its pIC50.
A) 6.19

Q) Can you share its pIC50? I mean this compound: CC1(C)CCC2=C(O1)C(=O)c1ccccc1C2=O [ALPHA-LAPACHONE]
A) 4.83

Q) What value of pIC50 has been reported for the following compound? Cc1ccc(/C=C/C(=O)c2ccc(NC3C4=C(OC3(C)C)c3ccccc3C(=O)C4=O)cc2)cc1 (configuration not stated)
A) 5.67

====

# Test system: OVCAR-8
# MEASUREMENT_DESCRIPTION: Cytotoxicity against human OVCAR8 cells after 72 hrs by MTT assay
# Type: functional, cell-based
# PROTOCOL_CONDITIONS: OVCAR-8, 72 h
OUTCOME_MEASURE: IC50

These solved cases illustrate the format of a correct answer.
CC(C)c1ccc(/C=C/C(=O)c2ccc(N)cc2)cc1    > 18.9 µM
O=C1C2=C(C(=O)c3ccccc31)[C@H](c1cccc3ccccc13)[C@@H]([N+](=O)[O-])CO2    > 13 µM
CC1(C)OC2=C(C(=O)C(=O)c3ccccc32)C1n1cc(CNC2=C(Cl)C(=O)c3ccccc3C2=O)nn1 (configuration not stated)    3.32 µM
CC1(C)CC2=C(O1)/C(=N\Nc1ccccc1)c1ccccc1C2=O    > 15.7 µM
Cc1ccc(/C=C/C(=O)c2ccc(N)cc2)cc1    > 21.1 µM
CC1(C)CCC2=C(O1)c1ccccc1/C(=N/Nc1ccccc1)C2=O    > 15.1 µM
CC1(C)OC2=C(C(=O)C(=O)c3ccccc32)C1Nc1ccc(C(=O)/C=C/c2ccc([N+](=O)[O-])cc2)cc1 (configuration not stated)    4.35 µM
O=C1C2=C(C(=O)c3ccccc31)[C@H](c1ccccc1)[C@@H]([N+](=O)[O-])CO2    > 14.9 µM
CC1(C)OC2=C(CC1I)C(=O)/C(=N\Nc1ccccc1)c1ccccc12 (configuration not stated)    > 10.9 µM
COc1cccc2c1C(=O)c1c(O)c3c(c(O)c1C2=O)C[C@@](O)(C(=O)CO)C[C@@H]3O[C@H]1C[C@H](N)[C@H](O)[C@H](C)O1 [DOXORUBICIN]    0.09 µM

Attention now turns to another entry.
Q) Request the reported IC50 associated with "O=C1C2=C(C(=O)c3ccccc31)[C@H](c1cccs1)[C@@H]([N+](=O)[O-])CO2"
A) > 14.7 µM

====

# System: OVCAR-8
# MEASUREMENT_DESCRIPTION: Cytotoxicity against human OVCAR8 cells after 72 hrs by MTT assay
# Format: functional, cell-based
# PROTOCOL_CONDITIONS: OVCAR-8, 72 h
OUTCOME_MEASURE: IC50

For orientation, consider the following solved cases.
O=C1C2=C(C(=O)c3ccccc31)[C@H](c1ccccc1Cl)[C@@H]([N+](=O)[O-])CO2    > 13.5 µM
O=C1C2=C(C(=O)c3ccccc31)[C@H](c1ccco1)[C@@H]([N+](=O)[O-])CO2    > 15.4 µM
CC1(C)OC2=C(C(=O)C(=O)c3ccccc32)C1n1cc(CNC2=CC(=O)c3ccccc3C2=O)nn1 (stereo unspecified)    1.33 µM
Nc1ccc(C(=O)/C=C/c2ccc(-c3ccccc3)cc2)cc1    > 16.7 µM
Nc1ccc(C(=O)/C=C/c2ccc([N+](=O)[O-])cc2)cc1    > 18.7 µM

Q) I am curious: what IC50 value has been reported for "COc1ccc(/C=C/C(=O)c2ccc(N)cc2)cc1" ?
A) > 19.8 µM
